Measured values drawn from PubChem BioAssay AID1259415 for this set.

assay: qHTS Assay for inhibitors of the human cytomegalovirus (HCMV); conditions: HFF cells, HCMV-luciferase reporter, 72 h; at 57.5 µM; note: % is set by controls: 0 for no effect and ±100 for the full control effect
Out of some 410,000 compounds screened, about 18,000 (4.4%) were called active. About 7% were inconclusive and are not listed. Cut-off read from the data, not from the text of the source: active = activity change below about -60%; inconclusive = no clear call, values can overlap the other calls; inactive = above about -39%. The full list was thinned out, with actives kept by preference.
Outcome codes: yes (1) = active, no (0) = inactive

[[record]]
molsmiles = "Cc1ccc(C)c(NC(=O)c2ccc(OC(=O)c3ccco3)cc2)c1"
class = "no (0)"

[[record]]
molsmiles = "Cc1ccc(Cl)cc1N1CCN(C(=O)c2cccn3c(=O)c4cc(Cl)ccc4nc23)CC1"
class = "no (0)"

[[record]]
molsmiles = "Cc1cccc(Cn2cccc(C(=O)Nc3ccc4c(c3)OCCO4)c2=O)c1"
class = "no (0)"

[[record]]
molsmiles = "Cc1ccc(NC(=O)c2cc3cc(C)ccc3n2C)cc1"
class = "no (0)"

[[record]]
molsmiles = "Cc1ccnc(NC(=O)c2ccc(NC(=O)c3ccco3)cc2)c1"
class = "yes (1)"

[[record]]
molsmiles = "O=c1c2ccccc2c(-c2ccccc2)nn1-c1ccccn1"
class = "no (0)"

